System: Pseudomonas aeruginosa A3
EXPERIMENTAL_PROTOCOL: MIC, standard serial dilution method
Type: cell-based
STUDY_CONDITIONS: Mueller-Hinton agar, 37° C
PROPERTY: MIC (mg/L)

COMPOUND	UNITS_TEXT	RESULT_OPERATOR	NUMERIC_RESULT
NCC[C@H](O)C(=O)N[C@@H]1C[C@H](N)[C@@H](O[C@H]2O[C@H](CN)[C@@H](O)C[C@H]2N)[C@H](F)[C@H]1O[C@H]1O[C@H](CO)[C@@H](O)[C@H](N)[C@H]1O [Compound 5F-TOB-AHB, reference compound]	mg/L	<	0.2
CN[C@@H]1[C@@H](O)[C@@H](O[C@H]2[C@H](NC(=O)[C@@H](O)CCN)C[C@H](N)[C@@H](O[C@H]3O[C@H]([C@@H](C)N)CC[C@H]3N)C2(F)F)OC[C@]1(C)O	mg/L	=	3.12
NC[C@@H]1CC[C@@H](N)[C@@H](O[C@@H]2[C@@H](N)C[C@@H](N)[C@H](O[C@H]3O[C@H](CO)[C@@H](O)[C@H](N)[C@H]3O)C2(F)F)O1	mg/L	=	0.39
CCN[C@@H]1C[C@H](N)[C@@H](O[C@H]2OC(CN)=CC[C@H]2N)C(F)(F)[C@H]1O[C@H]1OC[C@](C)(O)[C@H](NC)[C@H]1O	mg/L	=	1.56
